Read-out: CYP2C8 (gene 1558)
Experiment: LTEA_HepaRG_CYP2C8: Life Technologies and Expression Analysis (LTEA) Assay for CYP2C8 using HepaRG (AID 2283483)
Conditions: mRNA level, 48 h; actives raise or lower the signal
Protocol: LTEA_HepaRG is a cell based, multiplexed-readout assay that uses HepaRG, a human liver cell line, with measurements taken at 48 hours after chemical dosing on a 96-well plate.LTEA_HepaRG_CYP2C8 is one of 102 assay component(s) measured in the LTEA HepaRG cell culture assay. It is a marker of NR mediated metabolism.Data from the assay component LTEA_HepaRG_CYP2C8 was analyzed into 1 endpoint. […]
Activity calls are given as the source filed them. The calls were made as follows: active = hit-call score of the fitted dose curve at least 0.9, where 1 is the maximum; inactive = score below 0.9.
PARAMETER MEASURED: AC50

compound=Cc1ccc(-c2c(Cl)nc(C#N)n2S(=O)(=O)N(C)C)cc1 result="9.33 µM (active)"
compound=CS/C(C)=N/OC(=O)N(C)SN(C)C(=O)O/N=C(\C)SC result=inactive
compound="CCCC1COC(Cn2cncn2)(c2ccc(Cl)cc2Cl)O1 (configuration not stated)" result="36.4 µM (active)"
compound=CCCCOC(=O)c1ccccc1C(=O)OCCCC result=inactive
compound=COc1nc(NC(C)C)nc(NC(C)C)n1 result=inactive

Provide each entry's AC50 from the list below.
1. O=C(Nc1ccccc1)Nc1ccnc(Cl)c1
2. CNC(=S)S
3. N#CC(CCc1ccc(Cl)cc1)(Cn1cncn1)c1ccccc1 (configuration not stated)
4. COc1cnc(OC)n2nc(NS(=O)(=O)c3c(OCC(F)F)cccc3C(F)(F)F)nc12
5. C=CC1(C)OC(=O)N(c2cc(Cl)cc(Cl)c2)C1=O (configuration not stated)
6. N#Cc1cc(Br)c(O)c(Br)c1

inactive
inactive
73.7 µM (active)
inactive
16.7 µM (active)
25.3 µM (active)

Report AC50, nothing else, for this compound: CCc1nn(C)c(C(=O)NCc2ccc(C(C)(C)C)cc2)c1Cl
0.414 µM (active)
